From: ChEMBL document CHEMBL2311414

Test system: DU-145
protocol_notes: Cytotoxicity against human DU145 cells after 48 hrs by MTT assay
Format: functional, cell-based
condition_label: DU-145, 48 h
Measured IC50 determines class: lower band (below 500 nM), central band (500 nM to below 2000 nM), upper band (2000 nM or more)

Ask: Record `COc1cc(/C=C2\CC/C(=C\c3ccc(OCCCn4ccnc4C)c(OC)c3)C2=O)ccc1OCCCn1ccnc1C` — which class?
Reply: upper band

Ask: Record `COc1cc(/C=C2\CC/C(=C\c3ccc(OCCCCN4CCCCC4)c(OC)c3)C2=O)ccc1OCCCCN1CCCCC1` — which class?
Reply: lower band

Ask: Record `COc1cc(/C=C2\CC/C(=C\c3ccc(OCCN(C)C)c(OC)c3)C2=O)ccc1OCCN(C)C` — which class?
Reply: upper band

Ask: Record COc1cccc2c1C(=O)c1c(O)c3c(c(O)c1C2=O)C[C@@](O)(C(=O)CO)C[C@@H]3O[C@H]1C[C@H](N)[C@H](O)[C@H](C)O1 [DOXORUBICIN] — which class?
Reply: lower band

Ask: Record `COc1cc(/C=C2\CC/C(=C\c3ccc(OCCCCN4CCCCCC4)c(OC)c3)C2=O)ccc1OCCCCN1CCCCCC1` — which class?
Reply: central band

Ask: Record `COc1cc(/C=C2\CC/C(=C\c3ccc(OCCn4ccnc4C)c(OC)c3)C2=O)ccc1OCCn1ccnc1C` — which class?
Reply: upper band

Ask: Record `O=C1/C(=C/c2ccc(OCCCCN3CCCCC3)cc2)CCC/C1=C\c1ccc(OCCCCN2CCCCC2)cc1` — which class?
Reply: upper band

Ask: Record `COc1cc(/C=C2\CC/C(=C\c3ccc(OCCCCN4CCOCC4)c(OC)c3)C2=O)ccc1OCCCCN1CCOCC1` — which class?
Reply: central band

Ask: Record `CN(C)CCCCOc1ccc(/C=C2\CC/C(=C\c3ccc(OCCCCN(C)C)cc3)C2=O)cc1` — which class?
Reply: upper band

Ask: Record `COc1cc(/C=C2\CC/C(=C\c3ccc(OCCN4CCCCC4)c(OC)c3)C2=O)ccc1OCCN1CCCCC1` — which class?
Reply: upper band

Ask: Record `COc1cc(/C=C2\CC/C(=C\c3ccc(OCCCN(C)C)c(OC)c3)C2=O)ccc1OCCCN(C)C` — which class?
Reply: lower band

* * *

protocol_notes: Selectivity index, ratio of IC50 for african green monkey Vero cells to IC50 for chloroquine-resistant Plasmodium falciparum W2
Assay type: toxicity, cell-based
condition_label: read-out: Ratio IC50
value_kind: selectivity ratio

In plain terms, `O=C1/C(=C/c2ccc(OCCn3ccnc3)cc2)CC/C1=C\c1ccc(OCCn2ccnc2)cc1` has a documented selectivity ratio of > 26.4

In plain terms, `Cc1nccn1CCCCOc1ccc(/C=C2\CC/C(=C\c3ccc(OCCCCn4ccnc4C)cc3)C2=O)cc1` has a documented selectivity ratio of > 6

In plain terms, `COc1cc(/C=C2\CC/C(=C\c3ccc(OCCCCN4CCCCCC4)c(OC)c3)C2=O)ccc1OCCCCN1CCCCCC1` has a documented selectivity ratio of > 4

In plain terms, `C[C@@H]1CC[C@H]2[C@@H](C)C(=O)O[C@@H]3O[C@@]4(C)CC[C@@H]1[C@]32OO4` has a documented selectivity ratio of > 800

In plain terms, `COc1cc(/C=C2\CC/C(=C\c3ccc(OCCN4CCCCC4)c(OC)c3)C2=O)ccc1OCCN1CCCCC1` has a documented selectivity ratio of > 15.4

In plain terms, `COc1cc(/C=C2\CC/C(=C\c3ccc(OCCCCN4CCCCC4)c(OC)c3)C2=O)ccc1OCCCCN1CCCCC1` has a documented selectivity ratio of > 2.6

In plain terms, `COc1cc(/C=C2\CC/C(=C\c3ccc(OCCn4ccnc4)c(OC)c3)C2=O)ccc1OCCn1ccnc1` has a documented selectivity ratio of > 4.9

In plain terms, `COc1cc(/C=C2\CC/C(=C\c3ccc(OCCCN(C)C)c(OC)c3)C2=O)ccc1OCCCN(C)C` has a documented selectivity ratio of > 6

In plain terms, `COc1cc(/C=C2\CC/C(=C\c3ccc(OCCn4ccnc4C)c(OC)c3)C2=O)ccc1OCCn1ccnc1C` has a documented selectivity ratio of > 6

In plain terms, `COc1cc(/C=C2\CC/C(=C\c3ccc(OCCN(C)C)c(OC)c3)C2=O)ccc1OCCN(C)C` has a documented selectivity ratio of > 15.4

In plain terms, `O=C1/C(=C/c2ccc(OCCCCn3ccnc3)cc2)CC/C1=C\c1ccc(OCCCCn2ccnc2)cc1` has a documented selectivity ratio of > 2.5

In plain terms, `COc1cc(/C=C2\CC/C(=C\c3ccc(OCCCn4ccnc4C)c(OC)c3)C2=O)ccc1OCCCn1ccnc1C` has a documented selectivity ratio of > 2.6

In plain terms, `COc1cc(/C=C2\CC/C(=C\c3ccc(OCCCCn4ccnc4)c(OC)c3)C2=O)ccc1OCCCCn1ccnc1` has a documented selectivity ratio of > 14

In plain terms, `Cc1nccn1CCOc1ccc(/C=C2\CC/C(=C\c3ccc(OCCn4ccnc4C)cc3)C2=O)cc1` has a documented selectivity ratio of > 21.6

In plain terms, `COc1cc(/C=C2\CC/C(=C\c3ccc(OCCN4CCOCC4)c(OC)c3)C2=O)ccc1OCCN1CCOCC1` has a documented selectivity ratio of > 3.4

In plain terms, `COc1cc(/C=C2\CC/C(=C\c3ccc(OCCCCn4ccnc4C)c(OC)c3)C2=O)ccc1OCCCCn1ccnc1C` has a documented selectivity ratio of > 1.7

In plain terms, `COc1cc(/C=C2\CC/C(=C\c3ccc(OCCCCN4CCOCC4)c(OC)c3)C2=O)ccc1OCCCCN1CCOCC1` has a documented selectivity ratio of > 11.9
